target: Dihydrofolate reductase (Homo sapiens, UniProt P00374); experiment: Inhibition of recombinant human DHFR using dihydrofolate as substrate in presence of NADPH
Sequence (P00374 whole entry): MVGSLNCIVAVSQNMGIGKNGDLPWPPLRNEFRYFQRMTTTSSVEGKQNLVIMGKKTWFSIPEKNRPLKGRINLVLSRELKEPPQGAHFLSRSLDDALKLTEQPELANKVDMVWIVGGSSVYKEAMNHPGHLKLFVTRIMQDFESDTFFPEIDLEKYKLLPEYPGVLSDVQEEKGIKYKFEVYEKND
pIC50: −log10 of the molar value.
Reported endpoint: pIC50

Input smiles: Nc1nc(N)c2nc3c4cccnc4c4ncccc4c3nc2n1
Test system: Dihydrofolate reductase (Homo sapiens, UniProt P00374)
Reported endpoint: pIC50
Reading qualifier: =
Val: 5.24
--
Input smiles: Nc1nc(N)c2nc(-c3cccs3)c(-c3cccs3)nc2n1
Test system: Dihydrofolate reductase (Homo sapiens, UniProt P00374)
Reported endpoint: pIC50
Reading qualifier: =
Val: 5.84
--
Input smiles: Nc1nc(N)c2nc3c(nc2n1)-c1cccc2cccc-3c12
Test system: Dihydrofolate reductase (Homo sapiens, UniProt P00374)
Reported endpoint: pIC50
Reading qualifier: =
Val: 6.09
--
Input smiles: Nc1nc(N)c2nc(-c3ccco3)c(-c3ccco3)nc2n1
Test system: Dihydrofolate reductase (Homo sapiens, UniProt P00374)
Reported endpoint: pIC50
Reading qualifier: =
Val: 4.98
--
Input smiles: Nc1nc(N)c2nc3c4ccccc4c4ccccc4c3nc2n1
Test system: Dihydrofolate reductase (Homo sapiens, UniProt P00374)
Reported endpoint: pIC50
Reading qualifier: <
Val: 4.30

Attribution: ChEMBL document CHEMBL4622964
